Assay system: Human PD-L1/PD-1 (Homo sapiens, UniProt Q9NZQ7)
Construct: made in house; host or cells: HEK293T
Sequence (Q9NZQ7 with tags, fused parts or gaps): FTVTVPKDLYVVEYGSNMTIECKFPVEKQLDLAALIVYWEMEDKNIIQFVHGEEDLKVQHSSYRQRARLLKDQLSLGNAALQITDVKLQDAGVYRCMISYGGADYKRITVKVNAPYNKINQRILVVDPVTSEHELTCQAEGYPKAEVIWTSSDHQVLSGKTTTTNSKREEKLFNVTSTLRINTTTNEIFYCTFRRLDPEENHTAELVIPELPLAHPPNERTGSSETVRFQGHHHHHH
Procedure text: HTRF PD-1-Ig/PD-L1-His binding assay (human PD-L1)
Conditions used: value given instead of cluster; read-out: HTRF IC50 value
Positions of bridges follow the written chain, without caps; N, C: chain ends. Non-standard residues stand in square brackets, D forms with d. Residues, ends and D or L forms follow the SMILES beside them. Tyr(3-Br) = N[C@@H](Cc1ccc(O)c(Br)c1)C(=O)O; Hyp = O=C(O)[C@@H]1C[C@@H](O)CN1; NMeNle = CCCC[C@H](NC)C(=O)O; NMeA = CN[C@@H](C)C(=O)O; Dab = NCC[C@H](N)C(=O)O; Dap = NC[C@H](N)C(=O)O; Sar = CNCC(=O)O
Consider the following compounds and their measured IC50 readings.
Lab book: enter the figure in nM, no units written.

INSERT INTO assay_data (compound, assay_system, unit_abbrev, reported) VALUES
  ('CCCC[C@H]1C(=O)N(C)[C@@H](CCCC)C(=O)N[C@@H](CCCNC(=N)N)C(=O)N[C@H](C(=O)NCC(N)=O)CSCC(=O)N[C@@H](Cc2ccccc2)C(=O)N(C)[C@@H](C)C(=O)N[C@@H](CC(N)=O)C(=O)N2CCC[C@H]2C(=O)N[C@@H](Cc2cnc[nH]2)C(=O)N[C@@H](Cc2c[nH]c3ccccc23)C(=O)N(C)CC(=O)N[C@@H](Cc2c[nH]c3ccccc23)C(=O)N[C@@H](CO)C(=O)N[C@@H](Cc2c[nH]c3ccccc23)C(=O)N1C [Example 6009] ({CH2CO}-F[NMeA]NPHW[Sar]WSW[NMeNle][NMeNle]RCG-NH2; thioether N-14)', 'Human PD-L1/PD-1 (Homo sapiens, UniProt Q9NZQ7)', 'nM', 69.7);

Looking up CCCC[C@H]1C(=O)N([13CH3])[C@@H](CCCC)C(=O)N[C@@H](CCCNC(=N)N)C(=O)N[C@H](C(=O)NCC(N)=O)CSCC(=O)N[C@@H](Cc2ccc(O)cc2)C(=O)N([13CH3])[C@@H](C)C(=O)N[C@@H](CC(N)=O)C(=O)N2CCC[C@H]2C(=O)N[C@@H](Cc2cnc[nH]2)C(=O)N[C@@H](CC(C)C)C(=O)N2CCC[C@H]2C(=O)N[C@@H](Cc2c[nH]c3ccccc23)C(=O)N[C@@H](CO)C(=O)N[C@@H](Cc2csc3ccccc23)C(=O)N1[13CH3] , I see its IC50 listed as 4.97

According to the records, this compound CCCC[C@H]1C(=O)N2CCC[C@@H]2C(=O)N[C@@H](CCN)C(=O)N[C@H](C(=O)NCC(N)=O)CSCC(=O)N[C@@H](Cc2ccc(O)c(Br)c2)C(=O)N(C)[C@@H](C)C(=O)N[C@@H](CC(N)=O)C(=O)N2CCC[C@H]2C(=O)N[C@@H](Cc2cnc[nH]2)C(=O)N[C@@H](CC(C)C)C(=O)N(C)CC(=O)N[C@@H](Cc2c[nH]c3ccccc23)C(=O)N[C@@H](CCN)C(=O)N[C@@H](Cc2c[nH]c3ccccc23)C(=O)N1C [Example 6045] ({CH2CO}-[Tyr(3-Br)][NMeA]NPHL[Sar]W[Dab]W[NMeNle][dP][Dab]CG-NH2; thioether N-14) displays IC50 of 90.1

In plain terms, CCCC[C@H]1C(=O)N(C)[C@@H](CCCC)C(=O)N[C@@H](CCCNC(=N)N)C(=O)N[C@H](C(=O)NCC(N)=O)CSCC(=O)N[C@@H](Cc2ccccc2)C(=O)N(C)[C@@H](C)C(=O)N[C@@H](CC(N)=O)C(=O)N2CCC[C@H]2C(=O)N[C@@H](Cc2c[nH]cn2)C(=O)N[C@@H](CC(C)C)C(=O)N(C)CC(=O)N[C@@H](Cc2c[nH]c3ccccc23)C(=O)N[C@@H]([C@@H](C)O)C(=O)N[C@@H](Cc2c[nH]c3ccccc23)C(=O)N1C [Example 5008] ({CH2CO}-F[NMeA]NPHL[Sar]WTW[NMeNle][NMeNle]RCG-NH2; thioether N-14) has a documented IC50 of 18.1

Record CCCC[C@H]1C(=O)N(C)[C@@H](CCCC)C(=O)N[C@@H](CC(C)C)C(=O)N[C@H](C(=O)NCC(N)=O)CSCC(=O)N[C@@H](Cc2ccc(O)cc2)C(=O)N(C)[C@@H](C)C(=O)N[C@@H](CC(N)=O)C(=O)N2CCC[C@H]2C(=O)N[C@@H](CN)C(=O)N[C@@H](CCC(=O)O)C(=O)N2C[C@H](O)C[C@H]2C(=O)N[C@@H](Cc2c[nH]c3ccccc23)C(=O)N[C@@H](CO)C(=O)N[C@@H](Cc2c[nH]c3ccccc23)C(=O)N1C [Example 5071] ({CH2CO}-Y[NMeA]NP[Dap]E[Hyp]WSW[NMeNle][NMeNle]LCG-NH2; thioether N-14) . Reported IC50: 10.5

###

Measured pIC50 by item
Assay system: LK35.2-hPD-L1 cells / PE-labeled PD-1-Ig (Homo sapiens)
Construct: expressed in transfected cells; host or cells: LK35.2 mouse B cell line
Sequence (Q9NZQ7 19-290): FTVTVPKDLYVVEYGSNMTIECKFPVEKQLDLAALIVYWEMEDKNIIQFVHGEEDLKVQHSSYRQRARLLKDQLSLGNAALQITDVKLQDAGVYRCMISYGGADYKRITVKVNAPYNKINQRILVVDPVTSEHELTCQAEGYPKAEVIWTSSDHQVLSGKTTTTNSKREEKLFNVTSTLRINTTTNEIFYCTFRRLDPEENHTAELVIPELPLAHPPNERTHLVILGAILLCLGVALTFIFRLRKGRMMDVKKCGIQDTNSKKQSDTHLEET
Procedure text: LK35.2-hPD-L1 cell binding high-content screening assay
Format: cell-based
Conditions used: cluster symbol; cell line of CBA not given (LK35.2-hPD-L1 or 293T-hPD-L1); read-out: CBA IC50 cluster
pIC50: −log10 of the molar value. Positions of bridges follow the written chain, without caps; N, C: chain ends. Non-standard residues stand in square brackets, D forms with d. Residues, ends and D or L forms follow the SMILES beside them. Ala(indol-4-yl) = N[C@@H](Cc1cccc2[nH]ccc12)C(=O)O; Bta = N[C@@H](Cc1csc2ccccc12)C(=O)O; Hyp = O=C(O)[C@@H]1C[C@@H](O)CN1; NMeF = CN[C@@H](Cc1ccccc1)C(=O)O; NMeNle = CCCC[C@H](NC)C(=O)O; NMeA = CN[C@@H](C)C(=O)O; Orn = NCCC[C@H](N)C(=O)O; Dab = NCC[C@H](N)C(=O)O; Dap = NC[C@H](N)C(=O)O; Sar = CNCC(=O)O

INSERT INTO measurements (compound, reported) VALUES
  ('CCCC[C@H]1C(=O)N(C)[C@@H](CCCC)C(=O)N[C@@H](CCCN)C(=O)N[C@H](C(=O)NCC(N)=O)CSCC(=O)N[C@@H](Cc2ccc(O)cc2)C(=O)N2CCC[C@H]2C(=O)N[C@@H](CC(=O)O)C(=O)N2CCC[C@H]2C(=O)N[C@@H](CN)C(=O)N[C@@H](CC(=O)O)C(=O)N2C[C@H](O)C[C@H]2C(=O)N[C@@H](Cc2c[nH]c3ccccc23)C(=O)N[C@@H](CCN)C(=O)N[C@@H](Cc2csc3ccccc23)C(=O)N1C [Example 1181] ({CH2CO}-YPDP[Dap]D[Hyp]W[Dab][Bta][NMeNle][NMeNle][Orn]CG-NH2; thioether N-14)', '< 7.13'),
  ('CCCC[C@H]1C(=O)N(C)[C@@H](CCCC)C(=O)N[C@@H](CCCN)C(=O)N[C@H](C(=O)NCC(N)=O)CSCC(=O)N[C@@H](Cc2ccc(O)cc2)C(=O)N2CCC[C@H]2C(=O)N[C@@H](CC(=O)O)C(=O)N2CCC[C@H]2C(=O)N[C@@H](CN)C(=O)N[C@@H](CCC(=O)O)C(=O)N2C[C@H](O)C[C@H]2C(=O)N[C@@H](Cc2c[nH]c3ccccc23)C(=O)N[C@@H](CCN)C(=O)N[C@@H](Cc2csc3ccccc23)C(=O)N1C [Example 1193] ({CH2CO}-YPDP[Dap]E[Hyp]W[Dab][Bta][NMeNle][NMeNle][Orn]CG-NH2; thioether N-14)', '8.33 to 9.80'),
  ('CCCC[C@H]1C(=O)N(C)CC(=O)N[C@@H](CC(=O)O)C(=O)N[C@@H](C(C)C)C(=O)N(C)[C@@H](Cc2ccccc2)C(=O)N[C@@H](Cc2ccc(O)cc2)C(=O)N(C)CC(=O)N[C@@H](Cc2c[nH]c3ccccc23)C(=O)N[C@@H](Cc2ccc(O)cc2)C(=O)N[C@@H](CC(C)C)C(=O)N[C@H](C(=O)NCC(N)=O)CSCC(=O)N[C@@H](Cc2cccc3[nH]ccc23)C(=O)N(C)[C@@H](Cc2ccccc2)C(=O)N1C [Example 3103] ({CH2CO}-[Ala(indol-4-yl)][NMeF][NMeNle][Sar]DV[NMeF]Y[Sar]WYLCG-NH2; thioether N-13)', '< 7.13');

// switching to the query compound
response.value for CCCC[C@H]1C(=O)N(C)[C@@H](CCCC)C(=O)N[C@@H](CN)C(=O)N[C@H](C(=O)NCC(N)=O)CSCC(=O)N[C@@H](Cc2ccc(O)cc2)C(=O)N(C)[C@@H](C)C(=O)N[C@@H](CC(N)=O)C(=O)N2CCC[C@H]2C(=O)N[C@@H](CN)C(=O)N[C@@H](CC(C)C)C(=O)N2C[C@H](O)C[C@H]2C(=O)N[C@@H](Cc2c[nH]c3ccccc23)C(=O)N[C@@H](CCN)C(=O)N[C@@H](Cc2csc3ccccc23)C(=O)N1C [Example 1180] ({CH2CO}-Y[NMeA]NP[Dap]L[Hyp]W[Dab][Bta][NMeNle][NMeNle][Dap]CG-NH2; thioether N-14) (field: pIC50) = 8.33 to 9.80
